Source of measurements: patent US20240270821A1

Target: human glucagon receptor (human) (UniProt P47871)
Sequence (P47871 26-477): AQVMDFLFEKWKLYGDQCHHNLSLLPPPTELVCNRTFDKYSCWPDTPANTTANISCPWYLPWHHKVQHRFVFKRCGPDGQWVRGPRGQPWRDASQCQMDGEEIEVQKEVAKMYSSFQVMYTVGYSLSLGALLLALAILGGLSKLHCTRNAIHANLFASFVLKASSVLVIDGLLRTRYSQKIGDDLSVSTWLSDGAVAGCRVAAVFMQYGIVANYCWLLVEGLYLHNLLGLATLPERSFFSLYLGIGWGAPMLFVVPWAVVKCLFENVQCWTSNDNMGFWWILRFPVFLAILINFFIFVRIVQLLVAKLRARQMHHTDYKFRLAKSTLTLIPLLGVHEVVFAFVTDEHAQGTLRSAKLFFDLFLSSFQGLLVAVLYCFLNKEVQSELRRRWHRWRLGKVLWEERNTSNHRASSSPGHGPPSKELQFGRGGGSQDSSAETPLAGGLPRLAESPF
Assay: cell-based or functional assay
assayEndpoint: cAMP Rel EC50 (in the presence of 1% HSA) (nM)

binder	experimentalResult
YXQGTXTSDXSIXLDKKAQXAFIEYLEEGGPSSGEPPPSGSEE (Lys acylated (γ-Glu)2-C18 diacid; non-natural residues; C-terminal amide; synthetic construct; SITE 2: note = 2-Aminoisobutyric Acid; SITE 6: note = alpha-methyl-2-fluoro-L-phenylalanine; SITE 10: note = 3-(4-Pyridyl)-L-alanine; SITE 13: note = alpha-methyl-leucine; SITE 17: note = Lysine is chemically modified through conjugation of the epsilon-amino group of the Lysine) [Example 630]	872
YXQGTFTSDXXQXLDXKAQXQFIEXLIEXGPSSGEPPPSGGGE (non-natural residues, lysine acylation, C-terminal amide; synthetic construct; SITE 2: note = 2-Aminoisobutyric Acid; SITE 10: note = 3-(4-Pyridyl)-L-alanine; SITE 11: note = alpha-methyl-L-serine; SITE 13: note = alpha-methyl-leucine; SITE 16: note = L-ornithine; SITE 17: note = Lysine is chemically modified through conjugation of the epsilon-amino group) [Example 1184]	295
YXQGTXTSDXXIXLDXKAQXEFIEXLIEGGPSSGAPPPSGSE (acylated Lys (γGlu)2-C18 diacid; non-natural residues; C-terminal amide; synthetic construct; SITE 2: note = 2-Aminoisobutyric Acid; SITE 6: note = alpha-methyl-L-phenylalanine; SITE 10: note = 3-(4-Pyridyl)-L-alanine; SITE 11: note = alpha-methyl-L-serine; SITE 13: note = alpha-methyl-leucine; SITE 16: note = L-ornithine; SITE 17: note = Lysine is chemically modified th) [Example 1172]	303
YXQGTXTSDXSIXLDXKAQXEFIEXLIEGGPSSGAPPPSGS (Aib, αMeF(2F), 4Pal, αMeL, Orn, Me4Pal, αMeY; lipidated Lys; amide; synthetic construct; SITE 2: note = 2-Aminoisobutyric Acid; SITE 6: note = alpha-methyl-2-fluoro-L-phenylalanine; SITE 10: note = 3-(4-Pyridyl)-L-alanine; SITE 13: note = alpha-methyl-leucine; SITE 16: note = L-ornithine; SITE 17: note = Lysine is chemically modified through conjugation of the epsil) [Example 640]	730
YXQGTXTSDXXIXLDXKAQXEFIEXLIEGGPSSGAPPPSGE (non-natural residues; lipidated Lys; C-terminal amide; synthetic construct; SITE 2: note = 2-Aminoisobutyric Acid; SITE 6: note = alpha-methyl-2-fluoro-L-phenylalanine; SITE 10: note = 3-(4-Pyridyl)-L-alanine; SITE 11: note = alpha-methyl-L-serine; SITE 13: note = alpha-methyl-leucine; SITE 16: note = L-ornithine; SITE 17: note = Lysine is chemically mo) [Example 1176]	229
YXQGTFTSDFSKXLDKKAQXAFIEYLLAGGPSSGAPPPGGS (synthetic construct; SITE 2: note = 2-Aminoisobutyric Acid; SITE 13: note = alpha-methyl-leucine; SITE 17: note = Lysine is chemically modified through conjugation of the epsilon-amino group of the Lysine side chain with (2-[2-(2-Amino-ethoxy)-ethoxy]-acetyl)-(gamma-Glu)-CO-(CH2) 18-CO2H; SITE 20: n) [Example 16]	1660
